Data credit: PubChem BioAssay AID1159580

# experimental_protocol: chemical genetic growth profiling, strain panel (AID 1159580);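 further: tested at 20 µM; growth read once vehicle control cultures reached saturation at 30 °C; lower values mean less growth of the strain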
# experimental_setup: S. cerevisiae deletion strains, growth OD, locus YJL095W, strain BCK1
In all, about 5,500 compounds went through this assay and about 2,000 (36%) were called active. About 18% were inconclusive and are not listed. No stated cut-off is given here; in the data, active means normalized growth mostly below about 0.91 (no sharp cut-off); inconclusive means no clear call, values can overlap the other calls; inactive means mostly above about 0.92. The list shows a part of the results.
Write down one outcome, taken from Yes for active, No for inactive

Ask: Look up the recorded call for N#C/C(=N/Nc1ccc(Cl)cc1)C(=O)C1CC1 in this test.
Reply: Yes

Ask: Look up the recorded call for FC(F)(F)c1ccc(C2Sc3ccccc3N=C3c4ccccc4CC32)cc1 (stereo not given) in this test.
Reply: No

Ask: Look up the recorded call for C/C=C(\C)C(=O)OC1[C@@H]2C=C3C4CC(=O)O[C@@H](c5ccoc5)[C@]4(C)CCC3[C@@](C)(C2=O)[C@@H](C(O)C(=O)OC)C1(C)C (stereo not given in full) in this test.
Reply: No

Ask: Look up the recorded call for O=C(NNc1c(Cl)cccc1Cl)c1ccc([N+](=O)[O-])o1 in this test.
Reply: No

Ask: Look up the recorded call for O=C(SCc1c(Cl)cccc1Cl)c1ccc([N+](=O)[O-])o1 in this test.
Reply: No

Ask: Look up the recorded call for Cc1ccc(C(=O)Nc2ccc3ccccc3n2)cc1 in this test.
Reply: No

Ask: Look up the recorded call for O=C(O)c1cccc2cccc(C(=O)O)c12 in this test.
Reply: Yes

Ask: Look up the recorded call for FC(F)(F)COCC(F)(F)F in this test.
Reply: No

Ask: Look up the recorded call for C[N+]1(C)CCc2cc3c(cc2[C@H]1C1OC(=O)c2c1ccc1c2OCO1)OCO3 (stereo not given in full) in this test.
Reply: No

Ask: Look up the recorded call for O=C(N/N=C\c1ccc([N+](=O)[O-])o1)c1ccc(O)cc1 in this test.
Reply: No

Ask: Look up the recorded call for O=C(O)c1cccc(O)c1O in this test.
Reply: No

Ask: Look up the recorded call for N#C/C(=N/Nc1ccc(Cl)cc1)C(N)=S in this test.
Reply: Yes

Ask: Look up the recorded call for CSC(SC)=C(C#N)C(=O)c1ccccc1Cl in this test.
Reply: Yes

Ask: Look up the recorded call for COc1cccc(C(=O)C(C#N)=C(SC)SC)c1 in this test.
Reply: Yes

Ask: Look up the recorded call for O=C(OCc1ccc(Oc2ccc(Cl)cc2Cl)c([N+](=O)[O-])c1)c1ccc([N+](=O)[O-])o1 in this test.
Reply: No
